# System: LoVo
# experiment_description: MTT test, overall cell growth
# Format: cell-based, human
# settings: 72 hours of incubation
pIC50: −log10 of the molar value.
For each of the molecules below, state its pIC50.

Inquiry: Give recorded pIC50. CC1CC2(NC(CC(=O)c3ccccc3)CS2)C2(O)OC3CC4(CO)C(CCC5C4CCC4(C)C(C6=CC(=O)OC6)CCC54O)CC3OC2O1 (single isomer, unassigned) [Compound I]
Reply text: 7.30 to 8.00

Inquiry: Give recorded pIC50. CC1CC2(NC(=O)CS2)C2(O)OC3CC4(CO)C(CCC5C4CCC4(C)C(C6=CC(=O)OC6)CCC54O)CC3OC2O1 (stereo not drawn) [Compound B]
Reply text: 8.30 to 9.00

Inquiry: Give recorded pIC50. CC(=O)OCC12CC3OC4(O)C(OC(C)CC45N=CCS5)OC3CC1CCC1C2CCC2(C)C(C3=CC(=O)OC3)CCC12O (stereo not drawn) [Compound E]
Reply text: 5.30 to 6.00

Data provenance: patent US7981875B2
